Activity calls are given as the source filed them.
The next entries give measured Kd for UniProt:P55263.
Sequence (P55263 whole entry): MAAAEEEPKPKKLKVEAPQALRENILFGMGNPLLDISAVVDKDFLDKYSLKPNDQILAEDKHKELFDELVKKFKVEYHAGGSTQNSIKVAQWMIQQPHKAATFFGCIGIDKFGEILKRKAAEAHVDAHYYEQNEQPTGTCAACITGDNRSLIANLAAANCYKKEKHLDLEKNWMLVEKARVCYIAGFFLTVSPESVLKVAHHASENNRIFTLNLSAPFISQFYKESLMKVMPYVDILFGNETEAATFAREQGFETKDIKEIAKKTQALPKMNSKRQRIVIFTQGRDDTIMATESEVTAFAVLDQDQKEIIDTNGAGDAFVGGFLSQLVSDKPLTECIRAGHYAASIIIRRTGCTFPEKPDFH

According to the records, this compound `C[C@@H](Oc1cc(-n2cnc3ccc(CN4CCN(C)CC4)cc32)sc1C(N)=O)c1ccccc1C(F)(F)F` displays Kd of 2.51 µM (active)

According to the records, this compound `Nc1ncnc2c1c(-c1cccc(OCc3ccccc3)c1)cn2[C@H]1C[C@@H](CN2CCC2)C1` displays Kd of > 30 µM (inactive)

According to the records, this compound `COc1ncc(-c2ccc3nccc(-c4ccnnc4)c3c2)cc1NS(=O)(=O)c1ccc(F)cc1F` displays Kd of > 30 µM (inactive)

According to the records, this compound `C#Cc1cccc(Nc2ncnc3cc(OC)c(OCCCCCCC(=O)NO)cc23)c1` displays Kd of > 30 µM (inactive)
